The reported measurements were obtained from PubChem BioAssay AID248.

# Test system: L1210 leukemia ip in BDF1 mice, survival T/C
# test.name: NCI In Vivo Anticancer Drug Screen. Data for tumor model L1210 Leukemia (intraperitoneal) in B6D2F1 (BDF1) mice
# condition.parameters: endpoint: mean survival time; dose: 400.0 mg/kg/injection; schedule: Q04DX002 (ip); vehicle: Klucel (hydroxypropylcellulose) (HPC); higher = longer survival
Inconclusive results and toxic doses are left out.
quantity: T/C

- COc1ccc(-n2cccc2/C=N/O)cc1: 86 % of control
- COc1ccc(C(=O)OCc2ccccc2CN2CCOCC2)cc1: 95 % of control
- O=C(Oc1cc(Cl)c(S(=O)(=O)F)cc1Cl)c1ccc([N+](=O)[O-])cc1: 92 % of control

* * *

# System: L1210 leukemia ip in BDF1 mice, survival T/C
# test.name: NCI In Vivo Anticancer Drug Screen. Data for tumor model L1210 Leukemia (intraperitoneal) in B6D2F1 (BDF1) mice
# condition.parameters: endpoint: mean survival time; dose: 200.0 mg/kg/injection; schedule: Q01DX001 (ip); vehicle: carboxymethylcellulose (CMC); higher = longer survival
Toxic doses and inconclusive results are not listed.
Property: T/C; scope: individual compounds
quantity: T/C

• Fc1ccc(CSc2ncnc3c2ncn3C2CCCCO2)cc1 (configuration not stated) = 96 % of control
• c1ccc2c(c1)Cc1cc(CN3CCOCC3)ccc1-2 = 94 % of control
• O=C(CCCC(=O)OCC(F)(F)C(F)(F)C(F)(F)C(F)F)OCC(F)(F)C(F)(F)C(F)(F)C(F)F = 100 % of control
• CCOC(=S)Sc1ccc2c(c1)-c1ccc(F)cc1C2=O = 95 % of control
• COc1cc(CC(C(=O)OC(C)(C)C)C(=O)OC(C)(C)C)cc(OC)c1OC = 97 % of control
• Nc1ccc(Cl)cc1 = 101 % of control
• Cc1ccc(O)c(C(=O)c2ccccc2)c1 = 89 % of control
• O=C(O/C(=N\N1N=NC(c2ccccc2)C1c1ccccc1)c1ccccc1)c1ccccc1 (configuration not stated) = 89 % of control
• ClC(Cl)(Cl)C(N1CCN(c2ccccc2)CC1)N1CCN(c2ccccc2)CC1 = 106 % of control
• O=C(SSC(=O)c1ccccc1)c1ccccc1 = 90 % of control
• c1ccc(P(OCCCCOP(c2ccccc2)c2ccccc2)c2ccccc2)cc1 = 114 % of control
• CCCCN(C)/N=N/c1nc[nH]c1C(=O)OCC = 109 % of control
• N#CCC1CC=CCC1 (configuration not stated) = 98 % of control
• Cn1c(CN(CCCl)CCCl)nc2c1c(=O)[nH]c(=O)n2C = 119 % of control
• CCCCC(=O)N/N=C/c1ccc(Cl)cc1 = 107 % of control
• Cc1cc(=O)cc(S)[nH]1 = 100 % of control
• Nc1cccc(-c2csc(N)n2)c1 = 100 % of control
• CC(CC(=O)c1ccc(F)cc1)N1CCCCC1 (configuration not stated) = 98 % of control
• CC12c3ccccc3C(c3ccccc31)C1C(=O)OC(=O)C12 (configuration not stated) = 96 % of control
• Cc1ccc(NC(=O)Nc2c(C)cccc2C)cc1 = 95 % of control
• CCSC(SCC)C(OC(=O)c1ccccc1)C(OC(=O)c1ccccc1)C(COC(=O)c1ccccc1)OC(=O)c1ccccc1 (configuration not stated) = 102 % of control
• COC(=O)c1cccc(OC)c1 = 104 % of control
• C/C=C\c1ccc(OC(=O)NC)c(OC)c1 = 100 % of control
• CC(=O)C=P(c1ccccc1)(c1ccccc1)c1ccccc1 = 101 % of control
• CS(=O)(=O)OCCCc1nc2ccccc2n1S(C)(=O)=O = 110 % of control
• CC(=O)c1cccc2c(C(C)=O)cccc12 = 111 % of control
• Nc1nc(N)c(N=Nc2ccccc2)c(=O)[nH]1 = 93 % of control

* * *

# System: L1210 leukemia ip in BDF1 mice, survival T/C
# test.name: NCI In Vivo Anticancer Drug Screen. Data for tumor model L1210 Leukemia (intraperitoneal) in B6D2F1 (BDF1) mice
# condition.parameters: endpoint: mean survival time; dose: 200.0 mg/kg/injection; schedule: Q01DX001 (ip); vehicle: other; higher = longer survival
Inconclusive results and toxic doses are left out.
Recorded measurements of T/C, one per entry
quantity: T/C

* CC(=O)Nc1ccc(C(=O)C(O)c2ccc(NC(C)=O)cc2)cc1 (centres undefined) | 105 % of control
* O=C(Cc1ccccc1)c1ccccn1 | 98 % of control
* CC(=O)C1(C(C)=O)C(c2cccc([N+](=O)[O-])c2)C1(c1ccccc1)[N+](=O)[O-] (centres undefined) | 93 % of control
* O=c1ccc2ccccc2o1 | 105 % of control
* CCOC(=O)CC(CC(=O)OCC)NC(=O)c1ccc(N(C)C=O)cc1 | 102 % of control
* Cc1nc2c(=O)[nH]c(=O)[nH]c2[nH]c1=O | 102 % of control
* COc1ccc(CNCCCCO)cc1 | 106 % of control
* CCOC(=O)N1C2C(c3ccccc3)=NC(C)(C)N2C(c2ccc([N+](=O)[O-])cc2)N1C(=O)OCC (centres undefined) | 102 % of control
* Cc1cc(Cl)c(Cl)cc1NC(=O)c1ccccc1F | 92 % of control

* * *

Below, each entry is listed alongside its reported T/C.
# Test system: L1210 leukemia ip in BDF1 mice, survival T/C
# test.name: NCI In Vivo Anticancer Drug Screen. Data for tumor model L1210 Leukemia (intraperitoneal) in B6D2F1 (BDF1) mice
# condition.parameters: endpoint: mean survival time; dose: 10.0 mg/kg/injection; schedule: Q01DX001 (ip); vehicle: saline; higher = longer survival
Toxic doses and inconclusive results are not listed.
quantity: T/C

* O=C1OC2CC3CC1C2C3 (stereo not drawn) | 101 % of control
* CCOP(=O)(OCC)Oc1ccc([N+](=O)[O-])c(CC)c1 | 100 % of control
* O=S(=O)(O)CS(=O)(=O)O.[Ag] | 95 % of control
* Cc1ccc2c(ccc3c[n+]4c5ccccc5ccc4n32)c1 | 100 % of control
* C=C=C[P+](c1ccccc1)(c1ccccc1)c1ccccc1 | 98 % of control
* CC(=O)Nc1nnc(Sc2n[nH]c(=O)[nH]c2=O)s1 | 98 % of control
* CC1CCC2N(C1)CC1C3(O)CC4(O)C(CCC5C(=O)C(O)CCC54C)C3(O)CC(O)C1(O)C2(C)O (stereo not drawn) | 98 % of control
* CCCCCCCCCCCCCCCC[n+]1ccc(C#N)cc1 | 90 % of control

* * *

# Tested on: L1210 leukemia ip in BDF1 mice, survival T/C
# test.name: NCI In Vivo Anticancer Drug Screen. Data for tumor model L1210 Leukemia (intraperitoneal) in B6D2F1 (BDF1) mice
# condition.parameters: endpoint: mean survival time; dose: 200.0 mg/kg/injection; schedule: Q04DX003 (ip); vehicle: saline; higher = longer survival
Inconclusive results and toxic doses are left out.
quantity: T/C

* CCNC(=O)c1cc2cccc(OC)c2oc1=N | 97 % of control
* CC1(C)NC(=O)N(CCO)C1=O | 100 % of control
* NC(N)=NCCCCCC(=O)Oc1ccc([N+](=O)[O-])cc1 | 92 % of control

* * *

# reported T/C; entries follow
# System: L1210 leukemia ip in BDF1 mice, survival T/C
# test.name: NCI In Vivo Anticancer Drug Screen. Data for tumor model L1210 Leukemia (intraperitoneal) in B6D2F1 (BDF1) mice
# condition.parameters: endpoint: mean survival time; dose: 200.0 mg/kg/injection; schedule: Q01DX001 (ip); vehicle: saline; higher = longer survival
# Method: The antitumor activity of compounds was measured in mice bearing transplantable tumors. Survival or tumor size were measured and the results are expressed as the measurement made in the treated group (T) divided by the measurement made in the vehicle treated control group (C). The tumor model used in this assay is L1210 Leukemia (intraperitoneal) in B6D2F1 (BDF1) mice
Toxic doses and inconclusive results are not listed.
quantity: T/C

- CCOC(=O)C1=NN(c2ccccc2)C(=O)C1N=Nc1c(Br)cc(S(N)(=O)=O)cc1Br (centres undefined): 101 % of control
- O=S(=O)(O)c1cccnc1: 98 % of control
- N#CCCCSC(=N)N: 104 % of control
- Cc1cc(=O)n(C)c[n+]1C: 100 % of control
- CC(C)CCCC(C)C1CCC2C3CC=C4CC(OC(=O)CCl)CCC4(C)C3CCC12C (centres undefined): 95 % of control
- c1ccc(C[Si](Cc2ccccc2)Cc2ccccc2)cc1: 90 % of control
- C(=C\C[n+]1ccccc1)/C[n+]1ccccc1: 106 % of control
- C[Si]1(C)CCCSC1: 96 % of control
- CC1(CNC(=O)C(=O)NCC2(C)CO2)CO1 (centres undefined): 120 % of control
- O=S1(=O)C=Cc2ccccc21: 106 % of control
- O=C(O)c1cc(Br)cc(Br)c1O: 105 % of control
- Cc1ccc(C)c2c1c1ccccc1n2N=O: 100 % of control
- CN1NC(=O)C2CCCC1O2 (centres undefined): 105 % of control
- Cc1ccc(S(=O)(=O)NC(CCC(=O)O)C(=O)O)cc1 (centres undefined): 102 % of control
